Method summary: NCI Yeast Anticancer Drug Screen. Data for the cln2 rad14 strain (AID 165);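 further: 0% = growth equal to vehicle treated cultures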
Experimental conditions: S. cerevisiae cln2 rad14 strain, at 50.0 µM, stronger effect = higher value
This is part of a sample that, as a whole, favours compounds with a hit. Of some 79,000 tested, about 15% had one in any assay. The source made the active and inactive calls. No stated cut-off is given here; in the data, active means growth inhibition above about 70%; inactive means the rest.
Reported metric: growth inhibition

Examples with answers:
CCOc1ccc(Br)cc1/C=N\N=C\c1cc(Br)ccc1OCC | 13.3% (inactive)
Cc1cc(=O)[nH]c(NN=C2CCCC2)n1 | -2.6% (inactive)
O=c1[nH]cc(Cl)cc1O | -40.9% (inactive)
S=C(Nc1ccccc1)N1CCCCC1 | -39.3% (inactive)
CC(CC(=O)c1ccccc1)c1ccccc1 (stereo unspecified) | -13.7% (inactive)

Would you mind telling me what growth inhibition value was observed for "CC(=O)Cc1cc(-c2cc(CC(C)=O)[nH]n2)n[nH]1" ?
-25.5% (inactive)

CCOC(=O)C1OC1c1ccccc1 (stereo unspecified) , same question.
-4.5% (inactive)

----------
Method summary: NCI Yeast Anticancer Drug Screen. Data for the mlh1 rad18 strain (AID 175)
Experimental conditions: S. cerevisiae mlh1 rad18 strain growth inhibition; at 50.0 µM; stronger effect = higher value
Compounds without any hit were thinned out: in the full panel of roughly 79,000, 15% have a hit.
Listed here are molecules together with their documented growth inhibition.
Form entry: value (%) — number only.

CCOc1ccc(I)cc1 | -11.7
COc1cc(/C=C/C(=O)c2ccccc2)cc(OC)c1OC | -2.3
COc1nc(N)nc2c1ncn2C1OC(CO)CC1O (centres undefined) | 25.8
COc1ccc(-c2cc3c(nn2)-c2ccccc2C3=O)cc1 | 5.45
CCOC(=O)c1[nH]c(C)c(C(C)=O)c1C | -8.15
c1ccc(Sc2ccccc2)cc1 | 0.85
CC1NC(=O)NC1CCCCCC(=O)O (centres undefined) | 17.3
O=C(Nc1ccccc1C(=O)NCC1CC1)c1cccs1 | -1.6
Nc1ccc(N=Nc2ccc(S(=O)(=O)O)cc2)c2ccccc12 | 9.05
Cc1ccc(C(=O)N/N=C/c2ccc3c(c2)OCO3)cc1 | 6.75

Would you mind telling me what growth inhibition value was observed for "Cc1cccc(CO)c1" ?
-22.1

"CC(=O)OCCO" , same question.
17.6

"C1CNC(C2=NCCN2)=N1" , same question.
-7.25

"c1ccc(CN2COc3c(ccc4c3OCN(Cc3ccccc3)C4)C2)cc1" , same question.
8.3

"Cc1cc2nc(CC(=O)c3cccc([N+](=O)[O-])c3)c(=O)[nH]c2cc1C" , same question.
39.5

"S=c1nn[nH]c2ccccc12" , same question.
8.25

"COCCCNC(=O)c1nnn2c1nc(N)c1cc(Cl)ccc12" , same question.
10.6

"Cc1ccc(/C(C#N)=C/c2ccc3c(c2)OCO3)cc1" , same question.
21.2

"[O-][N+](=Nc1cccc(Cl)c1)c1cccc(Cl)c1" , same question.
15.1

"Cc1ccc(O)c(C(=O)c2ccccc2)c1" , same question.
14.7

----------
Listed here are molecules together with their documented growth inhibition.
Method summary: NCI Yeast Anticancer Drug Screen. Data for the bub3 strain (AID 167)
Experimental conditions: S. cerevisiae bub3 mutant strain, at 50.0 µM, stronger effect = higher value
Description: Growth inhibition of yeast strains with defined genetic alterations is measured as a screen for potential anti-cancer activity. Selected strains with alterations in DNA damage repair or cell cycle control were exposed to compounds and growth inhibition was measured relative to vehicle treated controls. The strain used in this assay is bub3
About 79,000 compounds went through this panel and 15% of them were active in at least one assay; those are over-represented in the sample as a whole. Activity calls are given as the source filed them. No stated cut-off is given here; in the data, active means growth inhibition above about 70%; inactive means the rest.

Examples with answers:
CCNCCCCNCCCCNCCCCNCCCCNCC | 3.95% (inactive)
O=C(CC(=O)c1ccccc1O)c1ccccc1 | 62.6% (inactive)

Then this molecule:
Would you mind telling me what growth inhibition value was observed for Nc1ccccc1SC(CC(=O)c1ccccc1)c1c(Cl)cccc1Cl (stereo not drawn) ?
2.85% (inactive)

----------
Method summary: NCI Yeast Anticancer Drug Screen. Data for the rad50 strain (AID 155);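 further: 0% = growth of vehicle-only cultures of the same strain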
Experimental conditions: S. cerevisiae rad50 strain growth inhibition; at 50.0 µM; stronger effect = higher value
Compounds without any hit were thinned out: in the full panel of roughly 79,000, 15% have a hit.
Listed here are compounds together with their documented growth inhibition.
Form entry: value (%) — number only.

Examples with answers:
COc1ccc(/C=C/c2cccc[n+]2C)cc1 | 1.35
O=c1c2ccccc2c(Br)c(Br)c2ccccc12 | 11.4
Nc1ccc(CC(=O)O)c(N)c1 | 0.55
CC(=O)c1ccc2c(ccc3ccccc32)c1 | -13.1
O=C(c1ccc(Cl)cc1)c1ccccc1Cl | 37.9

Then this compound:
Would you mind telling me what growth inhibition value was observed for O=C(O)C(c1ccccc1)C(O)c1ccccc1 (stereo unspecified) ?
5.35

----------
Method summary: NCI Yeast Anticancer Drug Screen. Data for the mlh1 rad18 strain (AID 175)
Experimental conditions: S. cerevisiae mlh1 rad18 strain growth inhibition; at 50.0 µM; stronger effect = higher value
The panel holds about 79,000 compounds, 15% with a hit somewhere; the sample as a whole holds those more often.
Listed here are molecules together with their documented growth inhibition.
Form entry: value (%) — number only.

Would you mind telling me what growth inhibition value was observed for "O=[N+]([O-])c1cccc(C(F)(F)F)c1" ?
-9.85

----------
Method summary: NCI Yeast Anticancer Drug Screen. Data for the sgs1 mgt1 strain (AID 161);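 further: 0% = growth of cultures given vehicle only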
Experimental conditions: S. cerevisiae sgs1 mgt1 strain, at 50.0 µM, stronger effect = higher value
The panel holds about 79,000 compounds, 15% with a hit somewhere; the sample as a whole holds those more often.
Listed here are compounds together with their documented growth inhibition.
Form entry: value (%) — number only.

Examples with answers:
Cc1cc(C)cc(NCCC#N)c1 | 18.4
O=C(Cc1nc2ccc([N+](=O)[O-])cc2nc1CC(=O)c1cccnc1)c1cccnc1 | -1.35

Would you mind telling me what growth inhibition value was observed for CCCCC(O)c1ccccc1 (configuration not stated) ?
-24.7

"CC(C)=NNc1ccc([N+](=O)[O-])cc1[N+](=O)[O-]" , same question.
8.3

"CC(=O)NC(N)=S" , same question.
-23.1

Cc1cc(C(O)(c2ccc(Nc3ccccc3)cc2)c2ccc(Nc3ccc(S(=O)(=O)O)cc3)cc2)ccc1N (configuration not stated) , same question.
-9.6

"Nc1ccc(N=Nc2ccc(S(=O)(=O)O)cc2)c2ccccc12" , same question.
-22.4

"CCN(CC)c1ccc2nc3ccc(=[N+](CC)CC)cc-3oc2c1" , same question.
-187

"c1ccc2c(N3CCCCC3)ncnc2c1" , same question.
-4.65

"COc1cc2c(cc1OC)[C@H](C(=O)O)[C@@H](c1ccc(OC(C)C)c(OC)c1)N(C)C2=O" , same question.
7.2

"Cc1cc(N)ccc1-c1ccc(N)cc1C" , same question.
4.45

"O=c1cc(-c2ccccc2)oc2c1ccc1ccccc12" , same question.
21.9

"O=C(NCc1ccco1)Nc1c(Cl)cc(Cl)cc1Cl" , same question.
-2.85

"O=C1c2ccccc2C(=O)N1OCc1ccccc1" , same question.
-14.4

----------
Listed here are molecules together with their documented growth inhibition.
Method summary: NCI Yeast Anticancer Drug Screen. Data for the cln2 rad14 strain (AID 165);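 further: 0% = growth equal to vehicle treated cultures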
Experimental conditions: S. cerevisiae cln2 rad14 strain, at 50.0 µM, stronger effect = higher value
About 79,000 compounds went through this panel and 15% of them were active in at least one assay; those are over-represented in the sample as a whole.
Form entry: value (%) — number only.

Examples with answers:
CC(C)COC(=O)COC(=O)OCCOCCOC(=O)OCC(=O)OCC(C)C | -26.9
CCCCCCCO | 2.25
O=C(NN=C1CCCCC1)C(=O)NN=C1CCCCC1 | -20.7
c1cc2cccc3c4cccc5cccc(c(c1)c23)c54 | 10.8
Nc1ncnc2c1nc(N)n2C1OC(CO)C(O)C1O (stereo not given) | -23.4
Cc1ccc(CCCC(=O)O)c(C)c1 | 1.45
Cc1ccc(C)n1-c1ccsc1C(=O)NNC(=O)C(Cl)Cl | 21.1
NC(=O)N/N=C\c1ccco1 | -11.4

Would you mind telling me what growth inhibition value was observed for "N#CCCc1ccc(O)cc1" ?
1.55

COc1ccc(C(O)c2ccccc2)cc1 (stereo not given) , same question.
-50.2

"O=S(=O)(O)c1cc(O)c2c(N=Cc3ccccc3O)c(S(=O)(=O)O)ccc2c1" , same question.
-2.45

Nc1ccccc1SC(CC(=O)c1ccccc1)c1c(Cl)cccc1Cl (stereo not given) , same question.
1.75

CC(=Nc1ccccc1)C1=C(O)C(Cc2cccc(F)c2)NC1=O (stereo not given) , same question.
2.3

CC1CCCC(CC(N)=O)CC1 (stereo not given) , same question.
1.3

"CC(=O)c1cc2c(cc1F)C(C)(C)CCC2(C)C" , same question.
-32.5

O=C(O)C(c1ccccc1)C(O)c1ccccc1 (stereo not given) , same question.
-26.1

Values from PubChem BioAssay (NCI)
